# target: CYP2E1 (Homo sapiens)
# Sequence (P05181 whole entry): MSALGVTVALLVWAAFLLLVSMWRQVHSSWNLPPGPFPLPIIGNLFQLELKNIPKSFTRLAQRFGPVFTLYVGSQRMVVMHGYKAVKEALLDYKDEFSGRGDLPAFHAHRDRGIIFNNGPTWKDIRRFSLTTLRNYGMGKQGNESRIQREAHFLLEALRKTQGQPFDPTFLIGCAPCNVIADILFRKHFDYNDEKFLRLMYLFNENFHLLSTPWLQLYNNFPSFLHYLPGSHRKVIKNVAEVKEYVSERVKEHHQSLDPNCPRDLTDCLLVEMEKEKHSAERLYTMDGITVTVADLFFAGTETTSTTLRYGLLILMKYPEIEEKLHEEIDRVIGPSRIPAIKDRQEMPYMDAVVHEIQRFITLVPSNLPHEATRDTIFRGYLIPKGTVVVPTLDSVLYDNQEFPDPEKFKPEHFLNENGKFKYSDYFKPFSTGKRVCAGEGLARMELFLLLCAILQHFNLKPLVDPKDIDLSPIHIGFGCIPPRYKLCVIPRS
pIC50: −log10 of the molar value.

{"molecule": "COc1ccc2cc1Oc1ccc(cc1)C[C@H]1c3c(cc4c(c3Oc3cc5c(cc3OC)CCN(C)[C@@H]5C2)OCO4)CCN1C [CEP, Cepharanthine]", "pIC50": 4.59}

* * *

# target: CYP2C9 (Homo sapiens, UniProt P11712)
# Sequence (P11712 whole entry): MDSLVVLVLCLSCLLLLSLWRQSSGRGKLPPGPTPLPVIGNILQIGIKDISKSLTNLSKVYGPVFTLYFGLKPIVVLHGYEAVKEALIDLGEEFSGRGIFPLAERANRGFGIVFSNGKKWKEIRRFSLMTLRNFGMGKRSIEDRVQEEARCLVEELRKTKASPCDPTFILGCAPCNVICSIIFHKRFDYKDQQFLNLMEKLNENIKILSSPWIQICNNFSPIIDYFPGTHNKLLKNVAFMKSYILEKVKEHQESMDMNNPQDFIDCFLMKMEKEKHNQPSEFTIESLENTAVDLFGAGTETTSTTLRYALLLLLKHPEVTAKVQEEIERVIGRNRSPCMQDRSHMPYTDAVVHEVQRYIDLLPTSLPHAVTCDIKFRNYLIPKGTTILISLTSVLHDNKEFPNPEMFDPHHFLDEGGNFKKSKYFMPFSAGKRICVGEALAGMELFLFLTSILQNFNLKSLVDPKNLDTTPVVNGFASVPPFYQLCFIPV
readout_label: IC50

{"compound": "COc1ccc2cc1Oc1ccc(cc1)C[C@H]1c3c(cc4c(c3Oc3cc5c(cc3OC)CCN(C)[C@@H]5C2)OCO4)CCN1C [CEP, Cepharanthine]", "readout_label": "IC50", "obs_value": "24.6 µM"}
